Target: T1, MAGI2-2, second PDZ domain of MAGI2 (human, UniProt Q86UL8 426-510)
T1 construct: not shown: His6, N-terminal, kept; MBP, N-terminal, kept
T1 sequence (Q86UL8 426-510): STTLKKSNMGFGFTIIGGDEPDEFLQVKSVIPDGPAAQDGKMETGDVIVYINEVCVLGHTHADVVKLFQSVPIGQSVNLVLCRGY
Experiment: fluorescence polarisation; competitive: pre-formed complex of PDZ domain (>60-80% complex) and 50 nM fluorescent tracer peptide, increasing amount of unlabeled PTEN peptide (8 concentrations); 20 mM HEPES pH 7.5, 150 mM NaCl, 0.5 mM TCEP, 0.01% Tween 20; triplicate; competitive binding model (ProFit); apparent
Conditions: both partners purified
Where no end group is shown, it is not given here. The star is where a group is joined. Biotin = O=C1N[C@H]2[C@H](CS[C@H]2CCCCC(=O)*)N1; TTDS = NCCCOCCOCCOCCCNC(=O)CCC(=O)*
Recorded measurements of Kd, one per entry
All answers are understood in µM, so give the number only.

| binder | value |
| --- | --- |
| {Biotin-TTDS}-PFDEDQHTQITKV (source: synthetic peptide, bought: JPT Innovative Peptide Solutions (70%-80% purity)) [PTEN_13, 13-mer wild-type PDZ-binding motif peptide of PTEN] | 79.7 |

Now, please, on to the next binder.
GET /values?readout=Kd&item= {Biotin-TTDS}-DEDQHTQITK(Ac)V (PTEN, human, canonical isoform I, residues 393-403, K402 acetylated (acK); source: synthetic peptide (Chemical Peptide Synthesis Service of the IGBMC)) [PTEN_Ac, 11-mer PTEN PDZ-binding motif peptide acetylated at K402]
66.4
